assay: Human HepG2 cell viability assay in 384 well format; assay type: toxicity, cell-based; set-up: dose 125 nL, time 70.5 hour; concentration not given beside the values; details: HepG2 cells, read-out: Inhibition
Measurement Name: cytotoxicity at 70.5 h (%)
Your answer is read as %, so omit the unit and give the number.

Previously resolved entries follow.
State the recorded cytotoxicity at 70.5 h for this entry: CC(=O)N(Cc1ccoc1)C1CCCCC1
-5.21

State the recorded cytotoxicity at 70.5 h for this entry: CSCCC(Nc1nc(C)cc(C)n1)C(=O)NC(C)(C)CO (stereo unspecified)
25.7

State the recorded cytotoxicity at 70.5 h for this entry: Cc1cc(Cn2cc(C(C)Cc3ccc4c(c3)OCO4)nn2)n[nH]1 (stereo unspecified)
-7.62

New cases:
State the recorded cytotoxicity at 70.5 h for this entry: Cc1ccc2c(c1)C1(CCNCC1)CC2NC1CC1 (stereo unspecified)
2.66

State the recorded cytotoxicity at 70.5 h for this entry: CN1CCCCC1Cc1nc(Cc2cccc(F)c2)no1 (stereo unspecified)
-7.83

State the recorded cytotoxicity at 70.5 h for this entry: CNC(=O)C1CCN(C(=O)c2ccn(-c3ccc(F)cc3)n2)CC1
-15

State the recorded cytotoxicity at 70.5 h for this entry: Cc1nc(CN2CC[C@@H]3[C@@H](CCC(=O)N3CCc3c[nH]cn3)C2)co1
13

State the recorded cytotoxicity at 70.5 h for this entry: Nc1nccnc1C1CN(C(=O)COc2cccnc2)CCO1 (stereo unspecified)
6.29

State the recorded cytotoxicity at 70.5 h for this entry: Cn1cc(C(=O)NCC2CCN(C(=O)NC3CCCCC3)CC2)cn1
-15.9

State the recorded cytotoxicity at 70.5 h for this entry: Cc1nc(CN2CCCN(C(=O)c3cccn3C)CC2)cs1
1.17

State the recorded cytotoxicity at 70.5 h for this entry: CC(=O)c1cc(CN2C[C@@H](CN3CCC(O)CC3)[C@@H](CO)C2)n(C)c1
0.0676
